Values from patent US20120201835A1

# experimentalTarget: T1, Mouse Dkk-1 (mouse, UniProt O54908 32-272)
# T1 construct: Recombinant; also called MsDkk-1; murine Dkk-1
# T1 sequence (looked up): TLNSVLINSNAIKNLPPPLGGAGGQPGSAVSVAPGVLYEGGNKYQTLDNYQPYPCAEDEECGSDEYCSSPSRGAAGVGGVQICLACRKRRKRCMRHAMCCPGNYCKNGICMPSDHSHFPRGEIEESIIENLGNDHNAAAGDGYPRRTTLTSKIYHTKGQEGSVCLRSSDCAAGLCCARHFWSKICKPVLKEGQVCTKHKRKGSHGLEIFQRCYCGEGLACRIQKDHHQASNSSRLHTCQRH
# experiment: TRF cell assay, inhibition of Eu-labeled mouse Dkk-1 binding to cells

binder	binding result
RH1-10 antibody (antibody, human IgG2, lambda, V domains shown, IgG converted from the scFv, IgG2M4 heavy chain constant region) VH: QVQLLQSAAEVKKPGESLKISCKGSGYDFPGYYLHWVRQAPGQGLEWMGWINANSGATNYAQNFQGRVTMTRDTSISAAYMELSSLRSDDTAVYYCTREDHWGRGTTVTVSS VL: QSVLTQPPSASGAPGQRVTISCTGSSSNIGAGYDVHWYQQLPGAAPKLLIYGNSNRPSGVPDRFSGSKSGTSASLAITGLQAEDEADYYCQSYDSSLSGYVFGTGTKVTVLG	binds
RH2-59 antibody (antibody, human IgG2, lambda, V domains shown, IgG converted from the scFv, IgG2M4 heavy chain constant region) VH: EVQLVQSGAEVKKPGASVKVSCKASGYTFTDYYIHWVRQAPGQGLEWMGWIHSNSGATTYAQKFQARVTMSRDTSSSTAYMELSRLESDDTAMYFCSREDYWGRGTMVTVSS VL: QAVLTQPSSVSGAPGQRVTISCTGSSSNIGAGYDVHWYQQLPGTAPKLLIYANTNRPSGIPDRFSGSKSGTSASLAITGLQTEDEADYYCQSYDTSPSASYVFGTGTKLTVLG	binds
RH2-18 antibody (antibody, human IgG2, lambda, V domains shown, also called anti-Dkk-1 antibody RH2-18) VH: EVQLVQSGAEVKKPGASVKVSCKASGYTFTDYYIHWVRQAPGQGLEWMGWIHSNSGATTYAQKFQARVTMSRDTSSSTAYMELSRLESDDTAMYFCSREDYWGQGTLVTVSS VL: QSVLTQPPSVSGAPGQRVTISCTGSSSNIGAGYDVHWYQQLPGTAPKLLIYGYSNRPSGVPDRFSGSKSGASASLAITGLRPDDEADYYCQSYDNSLSSYVFGGGTQLTVLS	binds
RH2-80 antibody (antibody, human IgG2, lambda, V domains shown, IgG converted from the scFv, IgG2M4 heavy chain constant region) VH: EVQLVQSGAEVKKPGASVKVSCKASGYTFTDYYIHWVRQAPGQGLEWMGWIHSNSGATTYAQKFQARVTMSRDTSSSTAYMELSRLESDDTAMYFCSREDYWGKGTMVTVSS VL: QAVLTQPSSVSGAPGQRVSISCTGSSSNIGAAYDVHWYQQLPGTAPRLLIYVNNNRPSGVPDRFSGSKSGTSASLVIAGLQAEDEADYYCQSYDNSLNAYVFGTGTKLTVLG	binds
